System: CU-ACC2
Method: area under concentration-response curve (viability) (AUC (a.u.)); higher = less active
Stated conditions: 48 h
The label depends only on area under concentration-response curve: yes (1) if it is at least 600, no (0) if it is smaller.

CO[C@H]1/C=C\C=C(\C)C(=O)NC2=CC(=O)C(NCCN(C)C)=C(C[C@@H](C)C[C@H](OC)[C@H](O)[C@@H](C)/C=C(/C)[C@@H]1OC(N)=O)C2=O ... no (0)
CN(Cc1ccc(/C=C/C(=O)NO)cc1)CC12CC3CC(CC(C3)C1)C2 ... no (0)
COc1cc(OC)c(/C=C/[S+](=O)([O-])Cc2ccc(OC)c(NCC(=O)[O-])c2)c(OC)c1 ... no (0)
Cc1cnc(Nc2ccc(CN3CCOCC3)cc2)nc1Nc1cccc([S+](=O)([O-])NC(C)(C)C)c1 ... no (0)
Cc1cc(OCCCc2c3n(c4c(-c5c(C)nn(C)c5C)c(Cl)ccc24)[C@H](C)CN(c2cn(C)c4ccc(C(=O)O)cc24)C3=O)cc(C)c1Cl ... no (0)

Query: Does "COc1cc2nccc(Oc3ccc(NC(=O)NC4CC4)c(Cl)c3)c2cc1C(N)=O" have a reported area under concentration-response curve of at least 600?
Result: yes (1)

Query: Now give it for "COC1=CC=C2/C3=N/CCN3\C(=N/C2=C1OC)NC(=O)C4=CC=CN=C4" too.
Result: yes (1)

Query: Another: "O=C(O)C(=O)Nc1cccc(-c2nnn[nH]2)c1"
Result: yes (1)

Query: Repeat with O=C(NOCC(O)CO)c1ccc(F)c(F)c1Nc1ccc(I)cc1F (stereo unspecified)
Result: no (0)

====

Tested on: CU-ACC1
Method: area under concentration-response curve (viability) (AUC (a.u.)); higher = less active
Stated conditions: 48 h
Measure name: area under concentration-response curve
Returns: the value as a bare number; no unit string appended.

Some entries whose results are on file:
CCN(CC)CCCC(C)Nc1c2ccc(Cl)cc2nc2ccc(OC)cc12.Cl.Cl.O.O (centres undefined) ... 402
N#C/N=C(\NCCCCCCOc1ccc(Cl)cc1)Nc1ccncc1 ... 269
CC[C@H](C)[N]1C=C(C)C2=C1C=C(C=C2C(=O)NC\C3=C(C)\C=C(\C)NC3=O)C4=CC=C(N=C4)N5CCNCC5 ... 449
CCC(CC)CC1(C(=O)Nc2ccccc2SC(=O)C(C)C)CCCCC1 ... 519

Query: Param item = "CC(C)CNc1ccnc(NCc2csc(-c3ccccc3)n2)n1" ; retrieve measured area under concentration-response curve.
Result: 445

Query: Same lookup for "CCCC[C@@H](C=O)NC(=O)[C@H](CC(C)C)NC(=O)OCc1ccccc1" , please.
Result: 463

Query: And for "N=C(N)NC(=N)NCCc1ccccc1" ?
Result: 525

Query: "Cn1cnc2c(F)c(Nc3ccc(Br)cc3F)c(C(=O)NOCCO)cc21" , same question.
Result: 242

Query: And the next one, "NCCCN([C@H](CC#C)C/1=N/C2=C(C=CC(=C2)Cl)C(=O)N1NC3=CC=CC=C3)C(=O)C4=CC=CC(=C4F)Cl" ?
Result: 429

====

A collection of molecules and their measured area under concentration-response curve
System: NCI-H295R
Method: area under concentration-response curve (viability) (AUC (a.u.)); higher = less active
Stated conditions: 48 h
Note: the reply should be a number with no unit written.

Sample records with area under concentration-response curve:
Cc1cc(Nc2cc(N3CCN(C)CC3)nc(Sc3ccc(NC(=O)C4CC4)cc3)n2)[nH]n1 ... 459
CC(C)C(=O)Nc1ncc(-c2cc(C(F)F)nn2-c2c(Cl)cccc2Cl)s1 ... 507
N[C@@H](Cc1c[nH]c2ccc(O)cc12)C(=O)O ... 567

Query: State the recorded area under concentration-response curve for this entry: "COc1cc(Nc2c(C#N)cnc3cc(OCCCN4CCN(C)CC4)c(OC)cc23)c(Cl)cc1Cl"
Result: 430

Query: For "CC(C)N(CCC(=O)c1ccc2ccccc2c1)Cc1ccccc1" then?
Result: 603

Query: // next record "Cc1cccc(/C=N/Nc2cc(N3CCOCC3)nc(OCCc3ccccn3)n2)c1"
Result: 518

Query: Also "C[C@]1(c2nc3c(C(N)=O)cccc3[nH]2)CCCN1" , if possible.
Result: 521
